// data source = the METLIN SMRT retention time set (Domingo-Almenara et al. 2019)

Catalogue of molecules with associated RP-LC retention time
test: gradient 5% acetonitrile 3 min, to 50% in 2 min, to 85% in 15 min, held 3 min, 100 µL/min; conditions: column: Zorbax Extend-C18 2.1 x 50 mm; eluents: water / acetonitrile, 0.1% formic acid
Hi! Could you send only the number? It should be in s, unit omitted.

* CCc1cc(C2CCCN2C(=O)NCc2cccc(OC)c2)on1 (stereo not drawn) | 855
* Cc1[nH]c(C)c(S(=O)(=O)N2CCC(C(=O)NC(C)(C)C)CC2)c1C(=O)N1CCCCC1 | 710
* Cc1csc(-c2ccc(N3CCN(C(=O)c4cccs4)CC3)nc2)n1 | 781
* Cc1ccc(-c2cn3cccc(C)c3n2)cc1NS(=O)(=O)c1ccc(Cl)cc1 | 714
* CCNC(=O)C1N(C(C)C)C(=O)C12CCCCC2 (stereo not drawn) | 630

Request: Entry COc1ccc(-c2noc(C3CCCN3C(=O)c3ccsc3)n2)cc1 (stereo not drawn) has what RP-LC retention time?
Response: 849

Request: Entry Cc1cc(C(=O)N2CCCCC2)c2c(=O)n(CC(=O)NCCC(C)C)c(=O)n(C)c2n1 has what RP-LC retention time?
Response: 790

Request: Entry Cc1cc(NC(=O)CC2COc3ccccc3NC2=O)ccc1Br (stereo not drawn) has what RP-LC retention time?
Response: 791

Request: Entry O=C(Nc1ccccc1F)NC1CCN(C(=O)N2C[C@H]3C[C@H](C2)[C@H]2CCCC(=O)N2C3)CC1 has what RP-LC retention time?
Response: 677

Request: Entry Cn1nnc2ccc(-c3noc(Cc4cccc(F)c4)n3)cc21 has what RP-LC retention time?
Response: 921
